Source of measurements: ChEMBL document CHEMBL1201862

Tested on: KM12
Experiment: NCI tumour cell line growth inhibition, 48 h
Active and inactive are the calls of the source. Cut-off read from the data, not from the text of the source: active = GI50 up to about 1.1 µM and inactive = higher.
Labels: Y for active, N for inactive

{"compound": "CCC/C(Cl)=N\\OC(=O)Nc1ccc(OC(F)(F)F)cc1", "category_label": "N"}
{"compound": "O=C(CSc1nc2ccc(I)cc2c(=O)n1Cc1ccccc1)N/N=C/c1ccccc1", "category_label": "N"}
{"compound": "CC1OC(OP(=O)(OCc2ccccc2)OCc2ccccc2)C(OC(=O)c2ccccc2)C(OC(=O)c2ccccc2)C1I (stereo not given)", "category_label": "N"}
{"compound": "O=[N+]([O-])c1ccc(/C=C(/c2ccc([N+](=O)[O-])o2)S(=O)(=O)c2ccccc2)o1", "category_label": "N"}
{"compound": "C=C(Cl)[C@@](Cl)(CBr)CC[C@@H](Br)C(C)(C)Cl", "category_label": "Y"}
{"compound": "O=C1NN(Cc2ccccc2)C(=O)N2CCC[C@@H]12", "category_label": "N"}
{"compound": "O=C(O)COc1c(Cl)cc(Cl)c(C(c2c(Cl)cc(Cl)c(OCC(=O)O)c2Cl)C(Cl)(Cl)Cl)c1Cl", "category_label": "N"}
{"compound": "CC(C)(Cl)C(Cl)CC/C(CBr)=C(\\Cl)CBr (stereo not given)", "category_label": "N"}
{"compound": "CN(C)CCNC(=O)c1cccc2c(NC(CS)C(=O)O)c3ccccc3nc12 (stereo not given)", "category_label": "N"}
{"compound": "O=c1cccc(C2CC(CO)C3CCCCN3C2)[nH]1 (stereo not given)", "category_label": "N"}

====

System: 786-0
Assay: NCI tumour cell line growth inhibition, 48 h
Activity calls are given as the source filed them. No stated cut-off is given here; in the data, active = GI50 up to about 1.1 µM and inactive = higher. Residues, ends and D or L forms follow the SMILES beside them.
Here, each record is paired with measured GI50 data.

{"compound": "NC1=NC(c2ccc(Cl)cc2)N(c2ccc(S(N)(=O)=O)cc2)C(N)=N1 (stereo not drawn)", "GI50": "> 100 µM (inactive)"}
{"compound": "O=C(C=P(c1ccccc1)(c1ccccc1)c1ccccc1)c1cccc(-c2cccc([N+](=O)[O-])c2)c1", "GI50": "4.24 µM (inactive)"}
{"compound": "CCC(C)C(NC(=O)C(CC(C)C)NC(=O)CNC(=O)C(NC(=O)C1CCCN1C(=O)C(CC(C)C)NC(=O)C(N)Cc1ccccc1)C(C)CC)C(=O)NC(CC(C)C)C(N)=O (stereo not drawn) (H-FLPIGLIL-NH2; configuration not given here)", "GI50": "> 75 µM (inactive)"}

====

System: CAKI-1
Assay: NCI tumour cell line growth inhibition, 48 h
The source made the active and inactive calls. No stated cut-off is given here; in the data, active = GI50 up to about 1.1 µM and inactive = higher.
Here, each record is paired with measured GI50 data.

{"molecule": "COc1ccccc1/C=C1\\CCC(CNc2ccc(Cl)cc2)C1=O (stereo not given)", "GI50": "2.42 µM (inactive)"}
{"molecule": "Cc1nc2c(=O)n(C)c(=O)nc-2n(-c2ccc(Cl)cc2)c1C", "GI50": "43.1 µM (inactive)"}
{"molecule": "CC(C)=CCc1c2c(c3occ(-c4ccc(O)c(O)c4)c(=O)c3c1O)C=CC(C)(C)O2", "GI50": "1.55 µM (inactive)"}
{"molecule": "CCN(CC)c1ccc(/C=C(\\C#N)c2nc(N)nc(N3N=C(C)CC3(C)C)n2)cc1", "GI50": "15.1 µM (inactive)"}
{"molecule": "O=C(O)c1c(-c2c3ccc(=O)cc-3oc3cc(O)ccc23)cc2ccccc2c1-c1ccccc1", "GI50": "> 100 µM (inactive)"}

====

System: NCI-H23
Test: NCI tumour cell line growth inhibition, 48 h
Activity calls are given as the source filed them. Cut-off read from the data, not from the text of the source: active = GI50 up to about 1.1 µM and inactive = higher.
Labels: y = active, n = inactive

{"compound": "O=C1C(=O)N(c2ccc(Cl)c(Cl)c2)C(=O)C(=O)C1c1nc2ccccc2s1", "category_label": "n"}
{"compound": "CC(=O)Nc1ncc(Sc2ccccc2C(=O)O)s1", "category_label": "n"}
{"compound": "CCOC(=O)C(=O)Nc1ccc(C)cc1C", "category_label": "n"}
{"compound": "O=C(N/N=C1/C(=O)c2c3ccccc3cc3cccc1c23)c1ccccc1", "category_label": "n"}
{"compound": "COc1ccc([C@@]2(O)c3c(ccc(O)c3OC)[C@H]2OC)c(OC)c1", "category_label": "n"}
{"compound": "COc1ccc(OC2OC(CO)C(OCc3ccccc3)C(OCc3ccccc3)C2OCc2ccccc2)cc1 (stereo not drawn)", "category_label": "n"}
{"compound": "c1ccc2c(c1)SC(=C1Sc3ccccc3S1)S2", "category_label": "n"}
{"compound": "CC1=C(N2CC2)C(=O)C(CO)=C(N2CC2)C1=O", "category_label": "y"}
{"compound": "Cc1c2cccc(Sc3ccccc3)c2c2c3c(cccc13)[S+](c1ccccc1)C2 (stereo not drawn)", "category_label": "n"}
{"compound": "CCOC(=O)c1cnc2oc3ccc(O)cc3c2c1C", "category_label": "n"}
{"compound": "O=c1[nH]c(=O)n(COCc2ccccc2)cc1Nc1ccc(Br)cc1", "category_label": "n"}
{"compound": "CC1=NN2C(c3ccc([N+](=O)[O-])cc3)=CSC2=NC(C)(C)C1", "category_label": "n"}
{"compound": "O=c1oc2ccc(Cl)cc2cc1C1=CSC2=NCCN12", "category_label": "n"}
{"compound": "CCn1c2ccccc2n2c(=O)c3c(c(C#N)c12)CCCC3", "category_label": "n"}
{"compound": "O=c1c2ccc3cccc4c(=O)cc(c5ccccc15)-c2c34", "category_label": "n"}
{"compound": "CC1(C)CC[C@]2(C(=O)O)CC[C@]3(C)C(=CC[C@@H]4[C@@]5(C)CC[C@H](OC6OC(CO)C(O)C(O)C6OC6OC(CO)C(O)C(O)C6O)C(C)(C)[C@@H]5CC[C@]43C)[C@@H]2C1 (stereo partly drawn)", "category_label": "n"}
{"compound": "O=S(=O)(CC(Cl)c1ccccc1)c1nc2ccccc2s1 (stereo not drawn)", "category_label": "n"}
{"compound": "CC(C)Cc1ccc(C(C)/C=C2\\CCC(CN3CCOCC3)C2=O)cc1 (stereo not drawn)", "category_label": "n"}

====

System: OVCAR-4
Assay: NCI tumour cell line growth inhibition, 48 h
Activity calls are given as the source filed them. Cut-off read from the data, not from the text of the source: active = GI50 up to about 1.1 µM and inactive = higher.
measured_attribute: GI50

{"compound": "C=C1CCC2C(C)(CO)C(O)CCC2(C)C1CC(O)/C(=C/CO)C(=O)O (stereo unspecified)", "measurement": "> 100 µM (inactive)"}
{"compound": "N#Cc1c(-c2ccccc2)cc(-c2ccc(Cl)cc2)[nH]c1=S", "measurement": "42.6 µM (inactive)"}
{"compound": "CC(C)OC(=O)c1ccc(NCC2=CC(=O)C=CC2=O)cc1Cl", "measurement": "12.7 µM (inactive)"}
{"compound": "COc1ccccc1/C=C1\\CCC(CNc2ccc(Cl)cc2)C1=O (stereo unspecified)", "measurement": "14.7 µM (inactive)"}
{"compound": "CC12O[Te]34OC1(C)C(C)(O3)C2(C)O4", "measurement": "14.6 µM (inactive)"}
{"compound": "NC1=NC(c2ccc(Cl)cc2)N(c2ccc(S(N)(=O)=O)cc2)C(N)=N1 (stereo unspecified)", "measurement": "> 100 µM (inactive)"}
{"compound": "O=c1[nH]c2ccc(O)cc2o1", "measurement": "> 100 µM (inactive)"}
{"compound": "C/C(=N\\Nc1nnc(S)n1N)c1c(O)cc(C)oc1=O", "measurement": "99.3 µM (inactive)"}
{"compound": "C/C(=N\\NS(=O)(=O)c1ccc(C)cc1)c1c(O)cc(C)oc1=O", "measurement": "29.1 µM (inactive)"}
{"compound": "Oc1ccc(O)c(Sc2nnc(CCCCCCCCc3nnc(Sc4cc(O)ccc4O)o3)o2)c1", "measurement": "33.1 µM (inactive)"}
{"compound": "O=C(C=P(c1ccccc1)(c1ccccc1)c1ccccc1)c1cccc(-c2cccc([N+](=O)[O-])c2)c1", "measurement": "2.45 µM (inactive)"}

====

Here, each record is paired with measured GI50 data.
System: RXF 393
Test: NCI tumour cell line growth inhibition, 48 h
Activity calls are given as the source filed them. Rule as the data show it: active = GI50 up to about 1.1 µM and inactive = higher. Square brackets hold non-standard residues; d marks the D form. Peptide text beside a SMILES is read from it.

{"compound": "O=C(NC(Nc1ccc(F)cc1)(C(F)(F)F)C(F)(F)F)C(C(F)(F)F)C(F)(F)F", "GI50": "33.3 µM (inactive)"}
{"compound": "CCN(CC)CSc1nc2ccccc2o1", "GI50": "> 100 µM (inactive)"}
{"compound": "NNc1nncn1N", "GI50": "> 100 µM (inactive)"}
{"compound": "CCOC(=O)/C=C(\\C(=O)OCC)n1ccc(=O)[nH]c1=O", "GI50": "10.6 µM (inactive)"}
{"compound": "Cc1ccc(C)c(N2C/C(=N\\NC(=O)CC#N)C(c3nc4ccccc4s3)C(=O)C2=O)c1 (stereo not drawn)", "GI50": "> 100 µM (inactive)"}
{"compound": "COC(=O)[C@@H]1C[C@H]([Se]c2ccccc2)CN1S(=O)(=O)c1ccc(C)cc1", "GI50": "39.4 µM (inactive)"}
{"compound": "[N-]=[N+]=CC(=O)C1CCCN1C(=O)c1ccccc1 (stereo not drawn)", "GI50": "> 10 µM (inactive)"}
{"compound": "C#CCNC(=O)NCCCCC(NC(C)=O)C(=O)NCc1ccccc1 (stereo not drawn)", "GI50": "> 100 µM (inactive)"}
{"compound": "CC(C)C[C@H](NC(=O)[C@H](CC(C)C)NC(=O)[C@@H](Cc1c[nH]c2ccccc12)NC(=O)[C@H](Cc1ccccc1)NC(=O)[C@@H](Cc1c[nH]c2ccccc12)NC(=O)[C@H](CCC(N)=O)NC(=O)[C@@H](CCC(N)=O)NC(=O)[C@@H]1CCCN1C(=O)[C@@H](CCCCN)NC(=O)[C@H]1CCCN1C(=O)[C@H](N)CCCN=C(N)N)C(N)=O (H-[dR][dP][dK]P[dQ]Q[dW]F[dW]LL-NH2)", "GI50": "> 100 µM (inactive)"}
{"compound": "O=C(c1ccccc1)N(CCCCNC(=O)C(F)(F)F)CCCNC(=O)C(F)(F)F", "GI50": "> 100 µM (inactive)"}
{"compound": "CN/N=C(/c1nc2ccc([N+](=O)[O-])cc2nc1O)C(O)c1ccc(C(O)/C(=N\\NC)c2nc3ccc([N+](=O)[O-])cc3nc2O)cc1 (stereo not drawn)", "GI50": "> 100 µM (inactive)"}
{"compound": "Cc1cc(/N=N/c2ccc(/N=N/c3c(O)c(S(=O)(=O)O)cc4cc(S(=O)(=O)O)ccc34)cc2C)ccc1/N=N/c1ccc2cc(S(=O)(=O)O)cc(S(=O)(=O)O)c2c1", "GI50": "> 100 µM (inactive)"}
{"compound": "Cc1cccc(C)c1NC(=O)C1=NC(=S)NC(c2ccccc2)C1c1nc2ccccc2s1 (stereo not drawn)", "GI50": "> 100 µM (inactive)"}
{"compound": "O=Cc1cc([N+](=O)[O-])no1", "GI50": "> 100 µM (inactive)"}
{"compound": "CC(C)(Cl)C(Cl)CC/C(CBr)=C(\\Cl)CBr (stereo not drawn)", "GI50": "1.53 µM (inactive)"}
{"compound": "CC(=O)Oc1ccccc1", "GI50": "> 100 µM (inactive)"}
{"compound": "S=c1[nH]nc(Cc2ccccc2)c(=S)[nH]1", "GI50": "32.8 µM (inactive)"}
{"compound": "COc1cc2c(cc1OC)C1C3CCCCC3CCN1CC2 (stereo not drawn)", "GI50": "27 µM (inactive)"}
